# System: VEGF-stimulated ADSC/ECFC co-culture, nuclear area imaging
# METHOD_SUMMARY: nuclear area loss in endothelial-stromal co-culture, dose response, cell-based, VEGF stimulation, IC50 (AID 1117324)
The source made the active and inactive calls. The rule behind the calls is not given here.
Parameter: IC50. Scope: all listed entries.
READOUT: IC50

>>> observed_result("C[C@H]1O[C@@H](O[C@H]2[C@@H](O)C[C@H](O[C@H]3[C@@H](O)C[C@H](O[C@H]4CC[C@@]5(C)[C@H](CC[C@@H]6[C@@H]5CC[C@]5(C)[C@@H](C7=CC(=O)OC7)CC[C@]65O)C4)O[C@@H]3C)O[C@@H]2C)C[C@H](O)[C@@H]1O")
"0.103 µM"
>>> observed_result("CC1CCC(C(C)C)C(OC(=O)c2ccccc2O)C1 (stereo not given)")
"> 10 µM (inactive)"
>>> observed_result("CCCCCCC[N+](CC)(CC)CCCCc1ccc(Cl)cc1")
"> 10 µM (inactive)"
>>> observed_result("Cc1cc2nc3ccc(=[N+](C)C)cc-3sc2cc1N")
"8.15 µM (inactive)"
>>> observed_result("CN(C)C(=O)Oc1cccc([N+](C)(C)C)c1")
"> 10 µM (inactive)"
>>> observed_result("CC(=O)Oc1ccc(C2(c3ccc(OC(C)=O)cc3)Oc3ccccc3NC2=O)cc1")
"> 10 µM (inactive)"
>>> observed_result("COc1cc(S(N)(=O)=O)cc(C(=O)O)c1OC")
"> 10 µM (inactive)"
>>> observed_result("Oc1cc(Cl)ccc1Oc1ccc(Cl)cc1Cl")
"8.1 µM (inactive)"
>>> observed_result("CCC=CCC=CCC=CCCCCCCCC(=O)O")
"> 10 µM (inactive)"
>>> observed_result("O=C(O)CCC(=O)OC[C@@H](NC(=O)C(Cl)Cl)[C@H](O)c1ccc([N+](=O)[O-])cc1")
"> 10 µM (inactive)"
